Biological target: Serine/threonine-protein kinase MRCK alpha (Homo sapiens)
Sequence (Q5VT25 whole entry): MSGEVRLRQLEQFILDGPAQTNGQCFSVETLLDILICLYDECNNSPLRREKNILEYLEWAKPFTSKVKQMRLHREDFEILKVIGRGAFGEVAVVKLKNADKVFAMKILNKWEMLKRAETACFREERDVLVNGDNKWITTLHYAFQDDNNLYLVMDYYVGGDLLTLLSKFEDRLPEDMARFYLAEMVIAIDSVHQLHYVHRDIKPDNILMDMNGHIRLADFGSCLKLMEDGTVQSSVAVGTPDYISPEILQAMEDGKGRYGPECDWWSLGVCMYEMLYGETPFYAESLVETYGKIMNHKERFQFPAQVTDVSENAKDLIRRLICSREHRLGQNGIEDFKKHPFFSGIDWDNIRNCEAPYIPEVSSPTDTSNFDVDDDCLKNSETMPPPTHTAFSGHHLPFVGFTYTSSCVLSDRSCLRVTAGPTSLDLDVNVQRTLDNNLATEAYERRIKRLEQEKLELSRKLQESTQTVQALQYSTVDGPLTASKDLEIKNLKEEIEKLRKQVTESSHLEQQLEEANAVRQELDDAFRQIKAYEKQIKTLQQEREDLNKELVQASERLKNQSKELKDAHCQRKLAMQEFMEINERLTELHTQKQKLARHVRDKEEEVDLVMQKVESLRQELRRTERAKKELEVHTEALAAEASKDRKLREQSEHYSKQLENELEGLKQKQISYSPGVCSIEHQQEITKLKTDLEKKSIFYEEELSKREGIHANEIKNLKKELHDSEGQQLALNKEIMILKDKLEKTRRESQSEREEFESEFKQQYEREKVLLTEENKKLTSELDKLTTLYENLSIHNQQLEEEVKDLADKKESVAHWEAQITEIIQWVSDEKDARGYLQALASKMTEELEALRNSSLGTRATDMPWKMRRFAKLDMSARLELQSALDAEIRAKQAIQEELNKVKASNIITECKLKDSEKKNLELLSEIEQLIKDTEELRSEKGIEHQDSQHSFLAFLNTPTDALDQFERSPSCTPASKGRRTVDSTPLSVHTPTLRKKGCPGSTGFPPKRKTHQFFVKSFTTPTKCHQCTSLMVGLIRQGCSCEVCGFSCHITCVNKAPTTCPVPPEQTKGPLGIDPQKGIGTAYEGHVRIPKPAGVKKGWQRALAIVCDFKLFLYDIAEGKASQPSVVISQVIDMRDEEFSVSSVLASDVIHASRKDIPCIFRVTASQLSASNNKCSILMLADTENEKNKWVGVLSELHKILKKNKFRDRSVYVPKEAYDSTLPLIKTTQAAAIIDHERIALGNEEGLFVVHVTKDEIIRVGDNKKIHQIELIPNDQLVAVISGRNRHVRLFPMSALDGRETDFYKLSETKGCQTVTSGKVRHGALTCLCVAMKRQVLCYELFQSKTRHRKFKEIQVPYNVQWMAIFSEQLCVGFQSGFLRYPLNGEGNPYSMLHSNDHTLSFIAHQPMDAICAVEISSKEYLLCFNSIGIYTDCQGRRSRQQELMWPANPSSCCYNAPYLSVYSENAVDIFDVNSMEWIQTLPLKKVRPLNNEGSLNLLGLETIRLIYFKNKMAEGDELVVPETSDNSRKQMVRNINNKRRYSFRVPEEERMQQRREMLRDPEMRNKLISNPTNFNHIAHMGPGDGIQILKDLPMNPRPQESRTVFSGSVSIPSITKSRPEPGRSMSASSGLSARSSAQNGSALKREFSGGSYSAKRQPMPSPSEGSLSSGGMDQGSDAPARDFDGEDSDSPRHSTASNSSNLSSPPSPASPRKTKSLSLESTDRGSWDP
pIC50: −log10 of the molar value.
outcome measure: pIC50

smiles_record=COc1ccc2c(c1)C[C@H](C(=O)Nc1ccc(-c3cn[nH]c3)cc1O[C@H]1CCN(C)C1)CO2 tested_system="Serine/threonine-protein kinase MRCK alpha (Homo sapiens)" outcome_measure=pIC50 obs_value=6.53
smiles_record=COc1ccc2c(c1)C[C@H](C(=O)Nc1ccc(-c3cn[nH]c3)cc1O[C@@H]1CCN(C)C1)CO2 tested_system="Serine/threonine-protein kinase MRCK alpha (Homo sapiens)" outcome_measure=pIC50 obs_value=6.58

====

Quick record of IC50 values for Rho-associated protein kinase 2 (Homo sapiens, UniProt O75116).
outcome measure: IC50 (nM)

smiles_record=COc1ccc2c(c1)C[C@@H](C(=O)Nc1ccc(-c3cn[nH]c3)cc1O[C@H]1CCN(C)C1)CO2 outcome_measure=IC50 obs_value=34

[A] COc1ccc2c(c1)C[C@@H](C(=O)Nc1ccc(-c3cn[nH]c3)cc1O[C@@H]1CCN(C)C1)CO2
[B] COc1ccc2c(c1)C[C@@H](C(=O)Nc1ccc(-c3cn[nH]c3)cc1OCCN1CCCC1)CO2
Among A and B , which shows a numerically higher IC50 result? In your reply, give the label of the chosen option. B

src = ChEMBL document CHEMBL3217726
